Entries with reported IC50 on Histone deacetylase 3 (Homo sapiens)
Sequence (O15379 whole entry): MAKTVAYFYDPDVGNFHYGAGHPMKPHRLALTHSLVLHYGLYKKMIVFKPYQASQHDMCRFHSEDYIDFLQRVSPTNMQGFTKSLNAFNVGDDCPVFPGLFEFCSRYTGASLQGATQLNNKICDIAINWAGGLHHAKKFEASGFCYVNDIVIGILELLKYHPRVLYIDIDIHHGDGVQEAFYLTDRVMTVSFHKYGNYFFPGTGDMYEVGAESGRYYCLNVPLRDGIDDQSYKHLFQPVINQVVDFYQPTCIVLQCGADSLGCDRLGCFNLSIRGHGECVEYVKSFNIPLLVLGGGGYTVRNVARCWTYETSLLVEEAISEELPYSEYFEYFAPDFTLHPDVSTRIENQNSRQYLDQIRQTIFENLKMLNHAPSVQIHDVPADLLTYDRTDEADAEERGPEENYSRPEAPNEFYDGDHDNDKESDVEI
Recorded endpoint: IC50 (nM)

In the examples that follow, each entry is paired with its recorded IC50.
>>> experimental_value("CC1(C)CC(=O)Nc2ccc(C(=O)NC[C@H]3CC[C@H](/C=C/C(=O)NO)CC3)cc21")
15
>>> experimental_value("CC1(C)CC(=O)Nc2ccc(C(=O)NC[C@H]3CC[C@H](CCC(=O)NO)CC3)cc21")
89
>>> experimental_value("CC1(C)CC(=O)Nc2ccc(C(=O)NCc3ccc(/C=C/C(=O)NO)cc3)cc21")
65
>>> experimental_value("COc1ccc2cc(C(=O)NCCCCCCC(=O)NO)ccc2n1")
28
>>> experimental_value("CC1(C)CC(=O)Nc2ccc(C(=O)NCc3cccc(/C=C/C(=O)NO)c3)cc21")
210

[I] CC1(C)CC(=O)Nc2ccc(NC(=O)CCCCCCC(=O)NO)cc21
[II] O=C(CCCCCCNC(=O)c1ccc2[nH]c(=O)ccc2c1)NO
Exercise: compare I and II ; which one has the greater IC50? Please respond with the label that marks your chosen entry. II
(II: 180 nM, I: 89 nM)

----------
pIC50: −log10 of the molar value.
Test system Histone deacetylase 1 (Homo sapiens, UniProt Q13547), pIC50 listed for each of the molecules.
Recorded endpoint: pIC50

>>> experimental_value("CC1(C)CC(=O)Nc2ccc(C(=O)NCc3ccc(/C=C/C(=O)NO)cc3)cc21")
7.18
>>> experimental_value("CC1(C)CC(=O)Nc2ccc(C(=O)NC[C@H]3CC[C@H](/C=C/C(=O)NO)CC3)cc21")
8.42
>>> experimental_value("CC1(C)CC(=O)Nc2ccc(C(=O)NCc3cccc(/C=C/C(=O)NO)c3)cc21")
6.17
>>> experimental_value("CC1(C)CC(=O)Nc2ccc(C(=O)NC[C@H]3CC[C@@H](CCC(=O)NO)CC3)cc21")
7.39

[1] CC1(C)CC(=O)Nc2ccc(C(=O)NCCCCCCC(=O)NO)cc21
[2] O=C(CCCCCCC(=O)Nc1ccc2c(c1)CCC(=O)N2)NO
Kindly identify the item with the lower pIC50 figure among these two: 1 and 2 Give the chosen item's label as your response. 1
(1: 7.52, 2: 7.85)

[P] CC1(C)CC(=O)Nc2ccc(NC(=O)CCCCCCC(=O)NO)cc21
[Q] COc1ccc2cc(C(=O)NCCCCCCC(=O)NO)ccc2n1
Kindly identify the item with the lower pIC50 figure among these two: P and Q Give the label of your selection. Q
(Q: 7.28, P: 8.04)

----------
molecular target: Histone deacetylase (Rattus norvegicus) (UniProt Q6P6W3+Q99P99+Q99P96+Q4QQW4+Q99P97+Q5RJZ2+B1WBY8); settings: at 0.1 µM
Description: Inhibition of rat liver HDAC at 0.1 uM pre-incubated for 15 mins before Boc-Lys(Ac)-AMC substrate addition and measured after 30 mins by fluorometry
Recorded endpoint: inhibition (%)

Some solved entries appear below for comparison.
>>> experimental_value("CC1(C)CC(=O)Nc2ccc(C(=O)NC[C@H]3CC[C@H](/C=C/C(=O)NO)CC3)cc21")
55
>>> experimental_value("CC1(C)CC(=O)Nc2ccc(NC(=O)CCCCCCC(=O)NO)cc21")
58
>>> experimental_value("O=C(CCCCCCNS(=O)(=O)c1ccc2c(c1)CCC(=O)N2)NO")
15
>>> experimental_value("CN1C(=O)CC(C)(C)c2cc(C(=O)NCCCCCCC(=O)NO)ccc21")
50
>>> experimental_value("O=C(CCCCCOc1ccc2c(c1)CCC(=O)N2)NO")
13
>>> experimental_value("CC1(C)CC(=O)Nc2ccc(C(=O)NC[C@H]3CC[C@@H](CCC(=O)NO)CC3)cc21")
27
>>> experimental_value("O=C(CCCCCOc1ccc2ccc(=O)[nH]c2c1)NO")
21
>>> experimental_value("CC1(C)CC(=O)Nc2ccc(S(=O)(=O)NCCCCCCC(=O)NO)cc21")
17
>>> experimental_value("CC1(C)CC(=O)Nc2ccc(OCCCCCC(=O)NO)cc21")
11
>>> experimental_value("O=C(CCCCCOc1cccc2c1CCC(=O)N2)NO")
7

[1] O=C(CCCCCOc1cccc2c1NC(=O)CC2)NO
[2] CN1C(=O)CC(C)(C)c2cc(NC(=O)CCCCCCC(=O)NO)ccc21
[3] CC1(C)CC(=O)Nc2cc(C(=O)NCc3cccc(/C=C/C(=O)NO)c3)ccc21
# ascending order, key=inhibition Answer format: the labels, in the requested order. 1, 3, 2

[A] O=C(CCCCCCNS(=O)(=O)c1ccc2[nH]c(=O)ccc2c1)NO
[B] CC1(C)CC(=O)Nc2c(F)cc(NC(=O)CCCCCCC(=O)NO)cc21
Please compare: A and B . Report which one has the smaller inhibition value. // caller expects the label of the chosen entry A
(A: 18%, B: 49%)
